# applied-conditions: 293.15 K; 101.33 kPa; Liquid; Vibrating tube method
quantity-name: mass density (kg/m3)
The answer is to be given in kg/m3; state only the numeric part.

compound	units	mass density
CCCCC(=O)OCC [ethyl pentanoate]	kg/m3	877.15
CC(=O)c1ccccc1 [acetophenone]	kg/m3	1027.9
O [water]	kg/m3	999.7

Please find the next compound below.
Complete the entry with mass density for CCOC(=O)CC(=O)OCC [diethyl 1,3-propanedioate]
1055.25

====

# applied-conditions: Liquid; Ebulliometric method (Recirculating still)
quantity-name: Normal boiling temperature (°C)
Kindly answer with a numeric value in °C, unit omitted.

Example results:
compound	measured-result
CCCCC(=O)OCC [ethyl pentanoate]	146.2
CC(=O)c1ccccc1	202.0
CCCC(=O)OCC [ethyl butanoate]	121.40

Using the record for CCCC(=O)O , state its measured Normal boiling temperature.
163.7

Specify measured Normal boiling temperature for CCCCCCCCO .
195.1

Find the measured Normal boiling temperature of CCOC(=O)CC(=O)OCC [diethyl 1,3-propanedioate] and report it.
199.90

Report Normal boiling temperature, nothing else, for this compound: O
100.10
